I'd appreciate it if you could supply GI50 values for the items below.
- System: SK-OV-3 ovarian
- assay: NCI tumour cell line growth inhibition, 48 h

C[C@@H]1C[C@H](C)CN(S(=O)(=O)c2ccc3c(NO)c4ccc(S(=O)(=O)N5C[C@H](C)C[C@H](C)C5)cc4c(N=O)c3c2)C1: 0.122 µM
O=S(=O)(NC1=NCCN1C(=S)SN1CCn2c1nsc2=S)c1cccc2ccccc12: 31.1 µM
CC[n+]1oc(C(=O)c2ccc(Cl)cc2)c(-c2ccccc2)c1-c1ccccc1.[Cl][Fe]([Cl])([Cl])[Cl]: 46.7 µM
CC(=O)c1ccc2c(c1)C1C=CCC1[C@H](c1cc3c(cc1Br)OCO3)N2 (some centres undefined): 1.47 µM

Hi, could you look up GI50 for each item in my list?
1. CCNc1cc(-c2cccc(OC(F)(F)F)c2)nc2ccc(N3CCCC3)cc12
2. Cc1nc(N)nc2c1CCC(O)S2 (centres undefined)
3. COc1cccc(/C(C#N)=C/c2nc3c(N4CCOCC4)nc(Cl)nc3n2C)c1
4. FC(F)(c1ccc2ncccc2c1)c1nnc2ccc(-c3ccncc3)nn12
5. CCCCCCCCOC(=O)CC[C@@H](C)[C@H]1CC[C@H]2[C@@H]3[C@H](OC(=O)CCN)C[C@@H]4C[C@H](OC(=O)CCN)CC[C@]4(C)[C@H]3C[C@H](OC(=O)CCN)[C@]12C

Response:
["1.8 µM", "11.3 µM", "5.42 µM", "> 100 µM", "10.5 µM"]

---

- Tested on: NCI-H23 lung
- assay: NCI tumour cell line growth inhibition, 48 h
observable: log10 of TGI (log10 of the value in µM)
The common logarithm of TGI in µM is what is listed.

O=S(=O)(Nc1nc2ccccc2nc1Nc1ccc2ccccc2c1)c1ccccc1: 1.62

Go through the items and report each one's log10 of TGI.
1. C[C@@H]1C[C@H](C)CN(S(=O)(=O)c2ccc3c(NO)c4ccc(S(=O)(=O)N5C[C@H](C)C[C@H](C)C5)cc4c(N=O)c3c2)C1
2. O=C(N/N=C/c1cc(Cl)cc(Cl)c1[O-])c1ccccc1O.O=C(N/N=C/c1cc(Cl)cc(Cl)c1[O-])c1ccccc1O.[Co+2]

Response:
1. -0.40
2. 0.74

Report log10 of TGI for each item below.
1. O=C(Nc1cc(C(F)(F)F)ccc1Cl)c1ccc(NC2=C(Cl)C(=O)N(Cc3ccccc3)C2=O)cc1
2. CCOc1ccc2[nH]c3c(C)c4ccncc4c(C)c3c2c1
3. CCN1CCC(O)(c2ccc(Oc3ccc(F)cc3)cc2)C(C(=O)c2ccc(Oc3ccc(F)cc3)cc2)C1 (stereo unspecified)
4. CCCCCCCCCCCCCCCCCC1=NC(C)(C)CN1CC(C)O (stereo unspecified)

Response:
1: 1.64; 2: 0.48; 3: 1.45; 4: 1.43

State the recorded log10 of TGI for every item in the following list.
1. CN(C)c1ccc(/C=C2\N=C(NNc3ccccc3)NC2=O)cc1
2. COc1ccc(N=NC(C(=O)c2ccccc2)C(=O)c2ccccc2)cc1
3. OCc1ccc(N2CCc3cccc(F)c3C2)cc1Cl

Response:
[1.81, 1.81, 1.61]

---

- System: OVCAR-5 ovarian
- assay: NCI tumour cell line growth inhibition, 48 h
Please respond with reported TGI for every item in the list.

# example entries with known answers
O=C(O)c1ccc(CI)cc1: 34.5 µM
CCC1CC2C(=O)N(c3ccccc3)C(=O)C2c2[nH]c3ccccc3c21 (stereo not given): > 100 µM
CC[C@H](Nc1ncnc2nc[nH]c12)c1nc2cccc(F)c2c(=O)n1-c1ccccc1: > 100 µM
FC(F)(c1ccc2ncccc2c1)c1nnc2ccc(-c3ccncc3)nn12: > 100 µM

Respectfully, I request TGI for each entry included below.
1. CN(CCCCCl)P(=O)(OCCS(=O)(=O)CC(NC(=O)CCC(N)C(=O)O)C(=O)NC(C(=O)O)c1ccccc1)OCC1OC(n2ccc(N)nc2=O)C(F)(F)C1O (stereo not given)
2. O=S(=O)(NC1=NCCN1C(=S)SN1CCn2c1nsc2=S)c1cccc2ccccc12
3. O=C(O)c1ccc(NCn2nc(-c3ccccc3O)oc2=S)cc1
4. O=C1C(Br)=C(c2ccccc2)O/C1=C/C(=O)c1ccc(Br)cc1
5. CCCNC(=O)C1C(=O)C(=O)N(CCC)C1=O (stereo not given)

Response:
> 100 µM
> 100 µM
> 100 µM
> 100 µM
> 100 µM

Request: Requested read-out: TGI. Entry: CO/N=C(/C)c1cccc(Nc2nc3ccccc3c3[nH]c4ccccc4c23)c1
Response: 22.3 µM

---

- Tested on: COLO 205 colon
- assay: NCI tumour cell line growth inhibition, 48 h
observable: TGI

COc1ccccc1C#Cc1ccccc1C#CCCCCO: 37.7 µM

For the 2 compounds below, give their TGI values.
1. CC(=O)c1c(C)nc(SSc2nc(C)c(C(C)=O)c(-c3ccc(Cl)cc3)c2C#N)c(C#N)c1-c1ccc(Cl)cc1
2. COc1ccc2c(=O)cc(-c3ccccc3)[nH]c2c1

Response:
> 150 µg/mL
1.55 µM

For each of the compounds below, note its TGI.
1. S=c1snc2n1CCN2
2. CC(=O)Nc1ccc(C(=O)NN2C(=O)C(Cl)/C2=C/c2ccco2)cc1 (stereo unspecified)
3. COC(=O)c1cc2c3ccccc3n3c(=O)c4cc5ccc(N(S(=O)(=O)c6ccc(C)cc6)S(=O)(=O)c6ccc(C)cc6)cc5nc4c(n1)c23

Response:
1: > 100 µM; 2: > 100 µM; 3: > 100 µM

---

- System: HOP-18 NSCLC
- assay: NCI tumour cell line growth inhibition, 48 h
observable: TGI

Look over these answered cases.
CCC1CC2C(=O)N(c3ccccc3)C(=O)C2c2[nH]c3ccccc3c21 (stereo unspecified): 45.8 µM
CCC[CH2][Sn]([Cl])([Cl])[CH2]CCC: 2.56 µM
N#Cc1ccccc1C(Cl)(Cl)c1cnccn1: > 100 µM
O=c1cc(CO)oc2c3c(cc(O)c12)OCC(COC1OC(CO)C(O)C(O)C1O)=CC3 (stereo unspecified): > 100 µM
CC1=Nc2c(ccc3c2C(=O)c2ccccc2C3=O)NC(c2cccc3c2CCC3)C1 (stereo unspecified): > 100 µM
CC1=CC(=O)CC2(C)CC[C@@H]3C[C@]12OC3(C)C (stereo partly specified): > 100 µM
COC12CCC(=O)C=C1c1ccccc1N2C(C)=O (stereo unspecified): > 100 µM
COc1ccc(C(c2c(O)c3ccccc3n(-c3ccccc3)c2=O)c2c(O)c3ccccc3n(-c3ccccc3)c2=O)cc1: > 100 µM
C=C1C(=O)OC2C/C(C)=C/CC/C(C)=C/CCC3(COC(C)=O)OC3CC12 (stereo unspecified): 23.3 µM
C=CCNc1nc2c(s1)C(=O)c1ccccc1C2=O: 23.1 µM

Request: Give recorded TGI with HOP-18 NSCLC for the following compound: NCCSSCCN
Response: > 100 µM

---

- System: OVCAR-8 ovarian
- assay: NCI tumour cell line growth inhibition, 48 h
Exercise: state measured TGI for each of the compounds provided.

N#Cc1ccccc1C(Cl)(Cl)c1cnccn1: 77 µM
CC1=NC2=Nc3nc(C)cc[n+]3CN2C=C1: > 100 µM
O=C(/C=C/c1ccccc1)CSc1ncn[nH]1: > 100 µM
CC(NC(=O)NC(C)(C)C)NC(=O)C(N)CC(=O)O (stereo unspecified): > 100 µM
Nc1[nH]nc(Nc2ccc(Cl)cc2)c1P(=O)(c1ccccc1)c1ccccc1: 46.4 µM

Each of the following entries comes with a recorded value; kindly state TGI for each.
1. c1cc2c(s1)-c1sccc1C21OCCO1
2. Cc1c2c3ccccc3nc-2n(C)c2ccccc12
3. CCOC(=O)c1c(N=P(c2ccccc2)(c2ccccc2)c2ccccc2)nnc(-c2ccccc2)c1-c1ccccc1
4. O=C1c2ccccc2-[n+]2ccc3c([nH]c4ccccc43)c21

Response:
1. > 100 µM
2. 15.1 µM
3. > 100 µM
4. > 100 µM

Parameter requested: TGI. Apply to each item below.
1. COC(=O)c1cc2c3ccccc3n3c(=O)c4cc5ccc(N(S(=O)(=O)c6ccc(C)cc6)S(=O)(=O)c6ccc(C)cc6)cc5nc4c(n1)c23
2. CCOC(=O)c1cc2cc3c4c(c2oc1=O)CCCN4CCC3

Response:
1: > 100 µM; 2: 72.9 µM

---

- Test system: IGROV1 ovarian
- assay: NCI tumour cell line growth inhibition, 48 h; in the data active means GI50 below about 0.43 µM; inactive means the rest
Outcomes you can answer with include only these: active, inactive

# example entries with known answers
O=S(=O)(NC1=NCCN1C(=S)SN1CCn2c1nsc2=S)c1cccc2ccccc12: inactive
COc1ccc2cc(/C=C/C(=O)c3ccc(Cl)cc3Cl)ccc2c1: inactive
COc1cc(F)c(F)c(Nc2ccc(I)cc2F)c1NS(=O)(=O)C1(C[C@H](O)CO)CC1: active
O=C(O)c1ccc(NCn2nc(-c3ccccc3O)oc2=S)cc1: inactive
O=C1/C(=C/c2cccc(Br)c2)COc2ccc(O)cc21: inactive

Request: Record request — test call for COc1ccc(-c2cs/c(=N\N=C\c3ccc(O)cc3O)n2/N=C/c2ccc(O)cc2O)cc1
Response: inactive

Request: Can you handle COc1ccccc1C#Cc1ccccc1C#CCCCCO next?
Response: inactive

Request: Can you check CCOC(=O)Nc1nc2ccc(OC)cc2s1 next?
Response: inactive

Request: Do the same for COc1ccc(NC(=O)CSC2=C(Nc3cccc(Br)c3)C(=O)N(Cc3ccccc3)C2=O)cc1Cl please
Response: inactive

Request: Next compound up: Cn1c(-c2c(N)n(Nc3cccc(Cl)c3)c3nc(C#N)c(C#N)nc23)nc2ccccc21
Response: inactive
